Hello, the source for this data is ChEMBL document CHEMBL1909294, in case you need it.

- System: Hepatotoxicity
MEASURED ENDPOINT: HepSE_cirrhosis
Hey, just send me the number, nothing else.

INSERT INTO results (compound, measured_value) VALUES
  ('C[N+]1(C)[C@@H]2C[C@@H](OC(=O)C(O)(c3cccs3)c3cccs3)C[C@H]1[C@@H]1O[C@@H]12', 0);

In: Lab note: need HepSE_cirrhosis with Hepatotoxicity for entry CC(N)C12CC3CC(CC(C3)C1)C2 (stereo not given) , please look it up.
Out: 0

In: Lab note: need HepSE_cirrhosis with Hepatotoxicity for entry `Cc1cn([C@H]2C[C@H](N=[N+]=[N-])[C@@H](CO)O2)c(=O)[nH]c1=O` , please look it up.
Out: 0

---

Catalogue of HepSE_hepatic failure readings, one per entry.
- Tested on: Hepatotoxicity
Hey, just send me the number, nothing else.

INSERT INTO measurements (compound, measured_on, measured_value) VALUES
  ('COc1ccc2c3c1O[C@H]1C[C@@H](O)C=C[C@@]31CCN(C)C2', 'Hepatotoxicity', 0),
  ('C[C@]12C=CC(=O)C=C1CC[C@H]1[C@@H]3C[C@@H](O)[C@](O)(C(=O)CO)[C@@]3(C)C[C@H](O)[C@@]12F', 'Hepatotoxicity', 0),
  ('CN1C(=O)CC(C)(c2ccccc2)C1=O (centres undefined) [METHSUXIMIDE]', 'Hepatotoxicity', 0),
  ('C#Cc1cccc(Nc2ncnc3cc(OCCOC)c(OCCOC)cc23)c1', 'Hepatotoxicity', 1);

In: Lab note: need HepSE_hepatic failure with Hepatotoxicity for entry `O=c1n(CCCN2CCN(c3cccc(Cl)c3)CC2)nc2ccccn12` , please look it up.
Out: 0

In: Lab note: need HepSE_hepatic failure with Hepatotoxicity for entry CCN(CC)CCNC(=O)c1ccc(N)cc1 [PROCAINAMIDE] , please look it up.
Out: 1

In: Lab note: need HepSE_hepatic failure with Hepatotoxicity for entry `COC(=O)N[C@H](C(=O)N[C@@H](Cc1ccccc1)[C@@H](O)CN(Cc1ccc(-c2ccccn2)cc1)NC(=O)[C@@H](NC(=O)OC)C(C)(C)C)C(C)(C)C` , please look it up.
Out: 0

In: Lab note: need HepSE_hepatic failure with Hepatotoxicity for entry `CNC(=O)c1cc(Oc2ccc(NC(=O)Nc3ccc(Cl)c(C(F)(F)F)c3)cc2)ccn1` , please look it up.
Out: 0

In: Lab note: need HepSE_hepatic failure with Hepatotoxicity for entry `OC[C@@H](O)[C@@H](O)[C@H](O)[C@H](O)CO` , please look it up.
Out: 0

---

Catalogue of HepSE_cirrhosis readings, one per entry.
- System: Hepatotoxicity
- STUDY CONDITIONS: Liver; further: call rule not given here

INSERT INTO results (compound, measured_endpoint, measured_value) VALUES
  ('CC1=C(/C=C/C(C)=C/C=C/C(C)=C/CO)C(C)(C)CCC1', 'HepSE_cirrhosis', 0),
  ('NC[C@@H]1O[C@H](O[C@H]2[C@@H](O)[C@H](O[C@@H]3[C@@H](O)[C@H](N)C[C@H](N)[C@H]3O[C@H]3O[C@H](CN)[C@@H](O)[C@H](O)[C@H]3N)O[C@@H]2CO)[C@H](N)[C@@H](O)[C@@H]1O', 'HepSE_cirrhosis', 0),
  ('O=C(O)CN(CCN(CC(=O)O)CC(=O)O)CC(=O)O', 'HepSE_cirrhosis', 0),
  ('CN1CC[C@]23c4c5ccc(O)c4O[C@H]2[C@@H](O)C=C[C@H]3[C@H]1C5', 'HepSE_cirrhosis', 0),
  ('Clc1cccc(Cl)c1N=C1NCCN1', 'HepSE_cirrhosis', 0),
  ('COc1cc(Cc2cnc(N)nc2N)cc(OC)c1OC', 'HepSE_cirrhosis', 0),
  ('C#C[C@]1(O)CC[C@H]2[C@@H]3CCC4=CC(=O)CC[C@@H]4[C@H]3CC[C@@]21CC', 'HepSE_cirrhosis', 0),
  ('CN(C)CCC=C1c2ccccc2C=Cc2ccccc21', 'HepSE_cirrhosis', 0),
  ('CCCc1cc(=O)[nH]c(=S)[nH]1', 'HepSE_cirrhosis', 0),
  ('O=C1NC(=O)C(c2ccccc2)(c2ccccc2)N1', 'HepSE_cirrhosis', 0);

In: # query: HepSE_cirrhosis of entry `CCCCS(=O)(=O)N[C@@H](Cc1ccc(OCCCCC2CCNCC2)cc1)C(=O)O`
Out: 0

In: # query: HepSE_cirrhosis of entry CC1(C)NC(=O)N(c2ccc([N+](=O)[O-])c(C(F)(F)F)c2)C1=O [NILUTAMIDE]
Out: 0

In: # query: HepSE_cirrhosis of entry `O=P(O)(O)O`
Out: 0

In: # query: HepSE_cirrhosis of entry `NCCCC(O)(P(=O)(O)O)P(=O)(O)O`
Out: 0

In: # query: HepSE_cirrhosis of entry `NCC(=O)O`
Out: 0

In: # query: HepSE_cirrhosis of entry NNc1nncc2ccccc12 [HYDRALAZINE]
Out: 0

In: # query: HepSE_cirrhosis of entry `OC(Cn1cncn1)(Cn1cncn1)c1ccc(F)cc1F`
Out: 0

In: # query: HepSE_cirrhosis of entry CC(C[N+](C)(C)C)OC(N)=O (configuration not stated)
Out: 0

In: # query: HepSE_cirrhosis of entry CC(C)(C)NCC(O)c1ccc(O)c(CO)c1 (configuration not stated)
Out: 0

In: # query: HepSE_cirrhosis of entry CC(C)NCC(O)COc1ccc(CC(N)=O)cc1 (configuration not stated)
Out: 0

In: # query: HepSE_cirrhosis of entry `CNCCCC12CCC(c3ccccc31)c1ccccc12`
Out: 0

In: # query: HepSE_cirrhosis of entry `Brc1c(NC2=NCCN2)ccc2nccnc12`
Out: 0

In: # query: HepSE_cirrhosis of entry CC(C)(C(=O)O)c1ccc(C(O)CCCN2CCC(C(O)(c3ccccc3)c3ccccc3)CC2)cc1 (configuration not stated) [FEXOFENADINE]
Out: 0

In: # query: HepSE_cirrhosis of entry `CC(C)c1c(C(=O)Nc2ccccc2)c(-c2ccccc2)c(-c2ccc(F)cc2)n1CC[C@@H](O)C[C@@H](O)CC(=O)O`
Out: 0

---

Here's a batch of molecules along with measured HepSE_bilirubinemia for Hepatotoxicity.
Hey, just send me the number, nothing else.

Example entries and their recorded answers appear below.
INSERT INTO assay_data (molecule, measured_value) VALUES
  ('C[C@@H](O[C@H]1OCCN(Cc2n[nH]c(=O)[nH]2)[C@H]1c1ccc(F)cc1)c1cc(C(F)(F)F)cc(C(F)(F)F)c1 [APREPITANT]', 0),
  ('CC=CC1=C(C(=O)O)N2C(=O)[C@@H](NC(=O)[C@H](N)c3ccc(O)cc3)[C@H]2SC1 [CEFPROZIL]', 0),
  ('N[C@@H]1[C@H]2CN(c3nc4c(cc3F)c(=O)c(C(=O)O)cn4-c3ccc(F)cc3F)C[C@@H]12 [TROVAFLOXACIN]', 1),
  ('C=CC[N+]1([C@H]2C[C@H]3[C@@H]4CC[C@H]5C[C@H](O)[C@@H](N6CCOCC6)C[C@]5(C)[C@H]4CC[C@]3(C)[C@H]2OC(C)=O)CCCC1 [ROCURONIUM]', 0),
  ('CCC1(c2ccccc2)C(=O)NCNC1=O [PRIMIDONE]', 0),
  ('CC[C@@H]([C@H](C)O)n1ncn(-c2ccc(N3CCN(c4ccc(OC[C@@H]5CO[C@@](Cn6cncn6)(c6ccc(F)cc6F)C5)cc4)CC3)cc2)c1=O [POSACONAZOLE]', 1);

In: # query: HepSE_bilirubinemia of entry C[C@]12CCC(=O)C=C1CC[C@@H]1[C@@H]2C(=O)C[C@@]2(C)[C@H]1CC[C@]2(O)C(=O)CO [CORTISONE]
Out: 0

---

Catalogue of HepSE_hepatic necrosis readings, one per entry.
- Tested on: Hepatotoxicity
- STUDY CONDITIONS: Liver
Hey, just send me the number, nothing else.

Example entries and their recorded answers appear below.
INSERT INTO measurements (compound, measured_on, measured_value) VALUES
  ('CN1[C@@H]2CC[C@H]1C[C@@H](OC(=O)C(CO)c1ccccc1)C2 (some centres undefined)', 'Hepatotoxicity', 0),
  ('CCCCc1oc2ccccc2c1C(=O)c1cc(I)c(OCCN(CC)CC)c(I)c1', 'Hepatotoxicity', 0),
  ('CN(C)CCC=C1c2ccccc2C=Cc2ccccc21', 'Hepatotoxicity', 0);

// next entry
In: # query: HepSE_hepatic necrosis of entry `Cc1cccc([C@H](C)c2cnc[nH]2)c1C`
Out: 0

---

- System: Hepatotoxicity
Catalogue of HepSE_cholelithiasis readings, one per entry.
Hey, just send me the number, nothing else.

Example entries and their recorded answers appear below.
INSERT INTO assay_data (compound, measured_on, measured_value) VALUES
  ('CCC(C)n1ncn(-c2ccc(N3CCN(c4ccc(OCC5COC(Cn6cncn6)(c6ccc(Cl)cc6Cl)O5)cc4)CC3)cc2)c1=O (centres undefined) [ITRACONAZOLE]', 'Hepatotoxicity', 0),
  ('NCCCC[C@H](N[C@@H](CCc1ccccc1)C(=O)O)C(=O)N1CCC[C@H]1C(=O)O [LISINOPRIL ANHYDROUS]', 'Hepatotoxicity', 0);

In: Lab note: need HepSE_cholelithiasis with Hepatotoxicity for entry O=[N+]([O-])OCC(CO[N+](=O)[O-])O[N+](=O)[O-] [NITROGLYCERIN] , please look it up.
Out: 0

In: Lab note: need HepSE_cholelithiasis with Hepatotoxicity for entry CO/N=C(\C(=O)N[C@@H]1C(=O)N2C(C(=O)O)=C(CSc3nc(=O)c(=O)[nH]n3C)CS[C@H]12)c1csc(N)n1 [CEFTRIAXONE] , please look it up.
Out: 0
